# tested on: human O-GlcNAcase (Homo sapiens, UniProt O60502)
# Sequence (O60502 whole entry): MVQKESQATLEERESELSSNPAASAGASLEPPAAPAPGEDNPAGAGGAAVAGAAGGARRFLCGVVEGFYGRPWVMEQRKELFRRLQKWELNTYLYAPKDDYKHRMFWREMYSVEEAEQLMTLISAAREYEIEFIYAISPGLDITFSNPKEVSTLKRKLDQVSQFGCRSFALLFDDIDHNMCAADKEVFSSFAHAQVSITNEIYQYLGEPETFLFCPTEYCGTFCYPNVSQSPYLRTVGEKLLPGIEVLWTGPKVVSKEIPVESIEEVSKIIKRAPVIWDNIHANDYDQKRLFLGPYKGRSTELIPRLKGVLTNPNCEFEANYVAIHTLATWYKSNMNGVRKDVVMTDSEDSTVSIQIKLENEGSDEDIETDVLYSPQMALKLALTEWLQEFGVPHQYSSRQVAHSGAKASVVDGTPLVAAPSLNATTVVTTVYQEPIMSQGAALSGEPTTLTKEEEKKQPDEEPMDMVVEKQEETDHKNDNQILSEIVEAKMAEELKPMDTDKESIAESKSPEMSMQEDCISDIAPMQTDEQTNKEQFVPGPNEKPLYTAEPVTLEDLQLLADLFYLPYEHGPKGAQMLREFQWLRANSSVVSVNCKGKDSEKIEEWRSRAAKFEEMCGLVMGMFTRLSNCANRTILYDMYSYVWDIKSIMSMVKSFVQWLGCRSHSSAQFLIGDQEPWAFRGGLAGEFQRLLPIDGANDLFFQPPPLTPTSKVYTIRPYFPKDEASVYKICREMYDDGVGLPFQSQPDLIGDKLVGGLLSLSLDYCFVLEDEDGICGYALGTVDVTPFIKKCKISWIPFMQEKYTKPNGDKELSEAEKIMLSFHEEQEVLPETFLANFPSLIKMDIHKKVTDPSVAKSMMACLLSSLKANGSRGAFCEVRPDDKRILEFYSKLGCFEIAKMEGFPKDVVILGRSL
# experiment notes: Determination of KI values for inhibition of O-GlcNAcase activity (fluorogenic 4-methylumbelliferyl GlcNAc substrate)
# Format: biochemical
# condition summary: purified human O-GlcNAcase 0.7 nM, 2 mM substrate, pH 7.0, room temperature; Cheng-Prusoff; read-out: Ki
value kind: Ki (nM)

>  <compound>
CCNCC[C@H]1O[C@@H]2SC(NC)=N[C@@H]2[C@@H](O)[C@@H]1O [Example 55]

>  <result value>
9.3

$$$$

a = CN(C)C1=N[C@@H]2[C@@H](O)[C@H](O)[C@@H]([C@](O)(Cc3ccccc3)C(F)(F)F)O[C@@H]2S1 [Example 25]
b = CNC1=N[C@@H]2[C@@H](O)[C@H](O)[C@@H](CCl)O[C@@H]2S1 [Example 39]
c = C=CCNC1=N[C@@H]2[C@@H](O)[C@H](O)[C@@H](CC#N)O[C@@H]2S1 [Example 32]
-- ask Reorder: Ki, max to min. Write out the labels following the order that was asked for.
-- reply a, c, b

A = CCNC1=N[C@@H]2[C@@H](O)[C@H](O)[C@@H](C(=O)NC)O[C@@H]2S1 [Example 48]
B = CNC1=N[C@@H]2[C@@H](O)[C@H](O)[C@@H]([C@H](O)CCc3ccc(OC)cc3)O[C@@H]2S1 (single isomer, unassigned) [Example 6]
C = CNC1=N[C@@H]2[C@@H](O)[C@H](O)[C@@H](C(=O)O)O[C@@H]2S1 [Example 36]
D = CNC1=N[C@@H]2[C@@H](O)[C@H](O)[C@@H](C(=O)OC)O[C@@H]2S1 [Example 37]
-- ask Could you please order the items by Ki, going from the lowest number to the highest? A ranking is expressed here by listing the labels in the requested order.
-- reply C, D, B, A

---

# tested on: human O-GlcNAcase (Homo sapiens, UniProt O60502)
# experiment notes: Determination of KI values for inhibition of O-GlcNAcase activity (fluorogenic 4-methylumbelliferyl GlcNAc substrate)
# Assay type: biochemical
# condition summary: purified human O-GlcNAcase 0.7 nM, 2 mM substrate, pH 7.0, room temperature; Cheng-Prusoff; read-out: Ki
pKi: −log10 of the molar value.
value kind: pKi

>  <compound>
CN(C)C1=N[C@@H]2[C@@H](O)[C@H](O)[C@@H]([C@@H](O)CCc3ccccc3)O[C@@H]2S1 [Example 24]

>  <result value>
7.82

$$$$
>  <compound>
CNC(=O)CC[C@H]1O[C@@H]2SC(N(C)C)=N[C@@H]2[C@@H](O)[C@@H]1O [Example 13]

>  <result value>
7.00

$$$$

I = CCNC1=N[C@@H]2[C@@H](O)[C@H](O)[C@@H](C(=O)NC(C)C)O[C@@H]2S1 [Example 49]
II = COc1ccc(CCC(O)([C@H]2O[C@@H]3SC(N(C)C)=N[C@@H]3[C@@H](O)[C@@H]2O)C(F)(F)F)cc1 (stereo in doubt) [Example 29]
-- ask Which value of pKi is greater, the one for I or the one for II ? Indicate which entry you chose by stating its label.
-- reply II

A = CN(C)C1=N[C@@H]2[C@@H](O)[C@H](O)[C@@H]([C@H](O)Cc3ccccc3)O[C@@H]2S1 [Example 20]
B = CN(C)C1=N[C@@H]2[C@@H](O)[C@H](O)[C@@H](C(C)(C)Cl)O[C@@H]2S1 [Example 56]
-- ask # returns the entry with the larger pKi; inputs A and B Kindly state the label of the option you pick.
-- reply B

a = CNC1=N[C@@H]2[C@@H](O)[C@H](O)[C@@H](C(=O)NC3CC3)O[C@@H]2S1 [Example 42]
b = CNC1=N[C@@H]2[C@@H](O)[C@H](O)[C@@H]([C@](O)(CCc3ccc(OC)cc3)C(F)(F)F)O[C@@H]2S1 (single isomer, unassigned) [Example 8]
-- ask When a and b are compared, which has the higher number for pKi? Please identify the chosen entry by its label.
-- reply b

1 = CN(C)C1=N[C@@H]2[C@@H](O)[C@H](O)[C@@H](C(O)(CCc3ccccc3)C(F)(F)F)O[C@@H]2S1 (stereo in doubt) [Example 27]
2 = CNC1=N[C@@H]2[C@@H](O)[C@H](O)[C@@H](C(F)(F)CCc3ccc(OC)cc3)O[C@@H]2S1 [Example 10]
-- ask Between 1 and 2 , whose measured pKi reads higher? In your reply, give the label of the chosen option.
-- reply 1
(1: 9.04, 2: 7.16)

A = CNC(=O)[C@H]1O[C@@H]2SC(NC)=N[C@@H]2[C@@H](O)[C@@H]1O [Example 35]
B = COc1ccc(CC[C@](O)([C@H]2O[C@@H]3SC(N(C)C)=N[C@@H]3[C@@H](O)[C@@H]2O)C(F)(F)F)cc1 [Example 30]
-- ask Identify the entry with the smaller pKi: A or B . Pick one and reply with its label.
-- reply A
(A: 6.07, B: 6.85)

1 = COc1ccc(CC[C@@H](O)[C@H]2O[C@@H]3SC(N(C)C)=N[C@@H]3[C@@H](O)[C@@H]2O)cc1 [Example 22]
2 = C=C(C)[C@H]1O[C@@H]2SC(N(C)C)=N[C@@H]2[C@@H](O)[C@@H]1O [Example 16]
-- ask Smaller pKi value? Options are 1 and 2 Answer with the label corresponding to your selection.
-- reply 1
(1: 6.30, 2: 7.68)

---

# tested on: human O-GlcNAcase (Homo sapiens)
# experiment notes: Determination of KI values for inhibition of O-GlcNAcase activity (fluorogenic 4-methylumbelliferyl GlcNAc substrate)
# Type: biochemical
# condition summary: purified human O-GlcNAcase 0.7 nM, 2 mM substrate, pH 7.0, room temperature; Cheng-Prusoff; read-out: Ki
value kind: Ki (nM)

Solved cases (3 shown):
>  <compound>
COc1ccc(CC[C@H](O)[C@H]2O[C@@H]3SC(N(C)C)=N[C@@H]3[C@@H](O)[C@@H]2O)cc1

>  <Ki / nM>
6.4

$$$$
>  <compound>
COc1ccc(CC[C@H]([C@H]2O[C@@H]3SC(N(C)C)=N[C@@H]3[C@@H](O)[C@@H]2O)C(F)(F)F)cc1

>  <Ki / nM>
109

$$$$
>  <compound>
C=C(C)[C@H]1O[C@@H]2SC(NC)=N[C@@H]2[C@@H](O)[C@@H]1O [Example 14, 2,2,2-trifluoroacetate]

>  <Ki / nM>
10.1

$$$$

A = CNC1=N[C@@H]2[C@@H](O)[C@H](O)[C@@H]([C@@](O)(CCc3ccc(OC)cc3)C(F)(F)F)O[C@@H]2S1 (single isomer, unassigned)
B = C=C([C@H]1O[C@@H]2SC(NC)=N[C@@H]2[C@@H](O)[C@@H]1O)C(F)(F)F
C = CNC1=N[C@@H]2[C@@H](O)[C@H](O)[C@@H]([C@@H](CCc3ccc(OC)cc3)C(F)(F)F)O[C@@H]2S1
-- ask Let's sort these by Ki, smallest first. Go ahead? Put the labels in the requested order and list them out.
-- reply A, B, C
(A: 24 nM, B: 63 nM, C: 139 nM)
